- EXPERIMENTAL_SYSTEM: μ opioid receptor (Rattus norvegicus, UniProt P33535)
- Construct: Rat membranes were prepared each day using a partially thawed frozen rat brain; from tissue; host or cells: rat brain membranes
- Sequence (P33535 whole entry): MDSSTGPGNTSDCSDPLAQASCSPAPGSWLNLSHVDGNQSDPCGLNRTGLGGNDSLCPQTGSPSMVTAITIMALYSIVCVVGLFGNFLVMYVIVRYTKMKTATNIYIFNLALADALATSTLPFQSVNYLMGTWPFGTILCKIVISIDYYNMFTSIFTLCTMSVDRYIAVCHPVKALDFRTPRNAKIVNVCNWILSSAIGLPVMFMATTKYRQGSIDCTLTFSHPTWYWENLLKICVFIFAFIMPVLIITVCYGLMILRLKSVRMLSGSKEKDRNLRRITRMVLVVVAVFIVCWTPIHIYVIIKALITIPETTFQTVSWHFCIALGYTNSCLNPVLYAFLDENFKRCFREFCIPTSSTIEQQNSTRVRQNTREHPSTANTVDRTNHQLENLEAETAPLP
- PROCEDURE_DETAILS: Radioligand binding, mu sites, displacement of [3H]DAMGO in rat brain membranes
One threshold, 20 nM, splits the recorded Ki values: lower ones are T, equal or higher ones are F.

MOLECULE: Nc1sc2c(c1C(=O)c1ccccc1)[C@@H]1Oc3c(O)ccc4c3[C@@]13CCN(CC1CC1)[C@H](C4)[C@]3(O)C2
CATEGORY_LABEL: F
//
MOLECULE: COC(=O)c1c(N)sc2c1[C@@H]1Oc3c(O)ccc4c3[C@@]13CCN(CC1CC1)[C@H](C4)[C@]3(O)C2
CATEGORY_LABEL: F
//
MOLECULE: NC(=O)c1c(N)sc2c1[C@@H]1Oc3c(O)ccc4c3[C@@]13CCN(CC1CC1)[C@H](C4)[C@]3(O)C2
CATEGORY_LABEL: F
//
MOLECULE: O=[N+]([O-])c1cnc2c(c1)CC1(O)C3Cc4ccc(O)c5c4C1(CCN3CC1CC1)C2O5 (centres unmarked)
CATEGORY_LABEL: T
//
MOLECULE: N#Cc1c(N)sc2c1[C@@H]1Oc3c(O)ccc4c3[C@@]13CCN(CC1CC1)[C@H](C4)[C@]3(O)C2
CATEGORY_LABEL: T
